Data provenance: the supplement of paper PMC10201428

Item-by-item account of relative integration efficiency (log2)
B1: library; a variant is named by its letters at N, in order (parent)
chain: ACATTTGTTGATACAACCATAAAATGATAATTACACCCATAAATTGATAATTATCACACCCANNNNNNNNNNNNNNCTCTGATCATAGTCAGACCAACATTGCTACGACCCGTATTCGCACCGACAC

variants of: B1; assay: relative integration efficiency (T-RL orientation) vs wild-type transposon end (log2 (normalized fold change)); transposon end mutated: right end (5 bp flank + 75 bp right end); higher = more efficient transposition; conditions: with VchCAST RNA-guided transposition machinery (E. coli BL21(DE3) host, lacZ target)

Answered cases to consult:
constructSequence	relative integration efficiency (log2)
ACATTTGTTGATACAACCATAAAATGATAATTACACCCATAAATTGATAATTATCACACCCATAAATTGATATTGCCGCTGATCATAGTCAGACCAACATTGCTACGACCCGTATTCGCACCGACAC [TAAATTGATATTGC T78G]	0.0385
ACATTTGTTGATACAACCATAAAATGATAATTACACCCATAAATTGATAATTATCACACCCATAAGTTGATATTGCCTCTGATCATAGTCAGACCAACATTGCTACGACCCGTATTCGCACCGACAC [TAAGTTGATATTGC]	-0.0544
ACATTTGTTGATACAACCATAAAATGATAATTACACCCATAAATTGATAATTATCACACCCATAAATTGATATTGCCCCTGATCATAGTCAGACCAACATTGCTACGACCCGTATTCGCACCGACAC [TAAATTGATATTGC T78C]	-0.00404
ACATTTGTTGATACAACCATAAAATGATAATTACACCCATAAATTGATAATTATCACACCCATAAATTGATATTGCCTCTGATCATAGTCAGACCAACATTGCTACGACCCGTATTCGCACCGACAC [TAAATTGATATTGC]	-0.0034
ACATTTGTTGATACAACCATAAAATGATAATTACACCCATAAATGGATAATTATCACACCCAATTTAACTATAACGCTCTGATCATAGTCAGACCAACATTGCTACGACCCGTATTCGCACCGACAC [ATTTAACTATAACG T45G]	-1.16
ACATTTGTTGATACAACCATAAAATGATAATTACACCCATAAATTGATAATTATCACACCCATATTAAGATATTGCCTCTGATCATAGTCAGACCAACATTGCTACGACCCGTATTCGCACCGACAC [TATTAAGATATTGC]	-0.535
ACATTTGTTGATACAACCGTAAAATGATAATTACACCCATAAATTGATAATTATCACACCCATAAATTGATATTGCCTCTGATCATAGTCAGACCAACATTGCTACGACCCGTATTCGCACCGACAC [TAAATTGATATTGC A19G]	-0.155
AAATTTGTTGATACAACCATAAAATGATAATTACACCCATAAATTGATAATTATCACACCCATAAATTGATATTGCCTCTGATCATAGTCAGACCAACATTGCTACGACCCGTATTCGCACCGACAC [TAAATTGATATTGC C2A]	0.0243
ACATTTGTTGATACAACCATAAAATGAGAATTACACCCATAAATTGATAATTATCACACCCATAAATTGATATTGCCTCTGATCATAGTCAGACCAACATTGCTACGACCCGTATTCGCACCGACAC [TAAATTGATATTGC T28G]	-0.476
ACATTTGTTGAAACAACCATAAAATGATAATTACACCCATAAATTGATAATTATCACACCCAATTTAACTATAACGCTCTGATCATAGTCAGACCAACATTGCTACGACCCGTATTCGCACCGACAC [ATTTAACTATAACG T12A]	-0.998

q: # input variant: ACATTTGTTGATACAACCATAAAATGATCATTACACCCATAAATTGATAATTATCACACCCATAAATTGATATTGCCTCTGATCATAGTCAGACCAACATTGCTACGACCCGTATTCGCACCGACAC [TAAATTGATATTGC A29C] ; wanted: its relative integration efficiency (log2)
a: -0.793

q: Given ACATTTGTTGATACAACCATAAAATGATAATTACACCCATAAATTGATAATTATCACACCCATAAATTGATATAGCCTCTGATCATAGTCAGACCAACATTGCTACGACCCGTATTCGCACCGACAC [TAAATTGATATAGC] , state its recorded relative integration efficiency (log2).
a: -0.0924
